Test details: Luciferase activity of purified RLuc mutants (light output integrated over 10 s, luminometer)
Format: biochemical
Condition label: coelenterazine-n; relative to native enzyme
Value type: Activity (relative to RLuc) n

Please fill in: Activity (relative to RLuc) n reported for C124A/K300A: RLuc mutant C124A/K300A (protein) MASKVYDPEQRKRMITGPQWWARCKQMNVLDSFINYYDSEKHAENAVIFLHGNAASSYLWRHVVPHIEPVARCIIPDLIGMGKSGKSGNGSYRLLDHYKYLTAWFELLNLPKKIIFVGHDWGAALAFHYSYEHQDKIKAIVHAESVVDVIESWDEWPDIEEDIALIKSEEGEKMVLENNFFVETMLPSKIMRKLEPEEFAAYLEPFKEKGEVRRPTLSWPREIPLVKGGKPDVVQIVRNYNAYLRASDDLPKMFIESDPGFFSNAIVEGAKKFPNTEFVKVKGLHFSQEDAPDEMGKYIASFVERVLKNEQ = 1.0
